Known melting point of a selection of compounds

## Input Identify melting point associated with the compound Cc1cc2nc(-c3ccccn3)n(C(=O)c3ccc4ccccc4c3)c2cc1C [Compound 24]
## Output 168.7 to 169.6 °C

## Input Identify melting point associated with the compound O=C(c1ccc2ccccc2c1)n1c(-c2cccnc2)nc2ccccc21 [Compound 25]
## Output 148 to 148.6 °C

## Input Identify melting point associated with the compound Cc1cc2nc(-c3ccncc3)n(C(=O)c3cccc4ccccc34)c2cc1C [Compound 21]
## Output 167.2 to 168 °C

## Input Identify melting point associated with the compound Fc1ccc2nc(-c3ccncc3)n(Cc3cccc4ccccc34)c2c1 [Compound 43]
## Output 167.4 to 168.1 °C

## Input Identify melting point associated with the compound O=C(c1ccc2ccccc2c1)n1c(-c2ccccn2)nc2ccccc21 [Compound 22]
## Output 145 to 146 °C

New cases:
## Input Identify melting point associated with the compound Fc1ccc2nc(-c3ccccn3)n(Cc3cccc4ccccc34)c2c1 [Compound 35]
## Output 160.7 to 161.1 °C

====

molecular target: human cannabinoid CB1 receptor (Homo sapiens, UniProt P21554); assay: CB1 receptor radioligand ([3H]CP-55,940) displacement binding assay; conditions: CB1 (Ki, nM), displacement of 0.5 nM [3H]CP-55,940; means ± SEM, n = 3; Cheng-Prusoff from IC50
Sequence (P21554 whole entry): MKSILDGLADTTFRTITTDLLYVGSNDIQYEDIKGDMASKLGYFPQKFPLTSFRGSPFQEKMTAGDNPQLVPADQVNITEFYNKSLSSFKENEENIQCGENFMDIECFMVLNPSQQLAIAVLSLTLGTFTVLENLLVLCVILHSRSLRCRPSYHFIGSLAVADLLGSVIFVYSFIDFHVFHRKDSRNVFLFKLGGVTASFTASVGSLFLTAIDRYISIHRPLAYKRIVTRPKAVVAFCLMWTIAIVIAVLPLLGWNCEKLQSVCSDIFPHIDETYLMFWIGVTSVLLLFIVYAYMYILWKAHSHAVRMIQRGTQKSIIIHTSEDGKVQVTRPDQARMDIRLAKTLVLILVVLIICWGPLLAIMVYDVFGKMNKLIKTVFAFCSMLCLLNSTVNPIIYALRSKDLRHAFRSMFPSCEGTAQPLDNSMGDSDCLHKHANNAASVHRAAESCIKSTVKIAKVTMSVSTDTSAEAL
quantity: log10 of Ki (log10 of the value in nM)
Field: value | Transform: log10 | Quantity: Ki | Unit: nM

## Input Identify log10 of Ki associated with the molecule O=C(c1ccc2ccccc2c1)n1c(-c2ccccn2)nc2ccc(F)cc21
## Output 1.06

New cases:
## Input Identify log10 of Ki associated with the molecule Fc1ccc2c(c1)nc(-c1cccnc1)n2Cc1cccc2ccccc12
## Output 1.99

## Input Identify log10 of Ki associated with the molecule Fc1ccc2nc(-c3cccnc3)n(Cc3ccc4ccccc4c3)c2c1
## Output 1.03

## Input Identify log10 of Ki associated with the molecule c1cncc(-c2nc3ccccc3n2Cc2cccc3ccccc23)c1
## Output 1.88

## Input Identify log10 of Ki associated with the molecule Cc1cc2nc(-c3ccccn3)n(Cc3cccc4ccccc34)c2cc1C
## Output 1.11

## Input Identify log10 of Ki associated with the molecule O=C(c1ccc2ccccc2c1)n1c(-c2ccncc2)nc2cc(F)ccc21
## Output 3.01

## Input Identify log10 of Ki associated with the molecule Cc1cc2nc(-c3cccnc3)n(C(=O)c3ccc4ccccc4c3)c2cc1C
## Output 2.75

## Input Identify log10 of Ki associated with the molecule Cc1cc2nc(-c3ccccn3)n(C(=O)c3ccc4ccccc4c3)c2cc1C
## Output 1.45

## Input Identify log10 of Ki associated with the molecule Cc1cc2nc(-c3ccncc3)n(Cc3cccc4ccccc34)c2cc1C
## Output 0.68

## Input Identify log10 of Ki associated with the molecule c1ccc(-c2nc3ccccc3n2Cc2ccc3ccccc3c2)nc1
## Output 1.50

## Input Identify log10 of Ki associated with the molecule Cc1cc2nc(-c3cccnc3)n(Cc3ccc4ccccc4c3)c2cc1C
## Output 2.15

====

quantity: melting point

## Input Identify melting point associated with the compound Fc1ccc2nc(-c3ccccn3)n(Cc3ccc4ccccc4c3)c2c1
## Output 170.5 to 171.3 °C

## Input Identify melting point associated with the compound Fc1ccc2c(c1)nc(-c1ccncc1)n2Cc1cccc2ccccc12
## Output 151.5 to 152.5 °C

## Input Identify melting point associated with the compound c1cncc(-c2nc3ccccc3n2Cc2ccc3ccccc3c2)c1
## Output 146.3 to 147 °C

New cases:
## Input Identify melting point associated with the compound Fc1ccc2nc(-c3ccncc3)n(Cc3ccc4ccccc4c3)c2c1
## Output 163.5 to 164.1 °C

## Input Identify melting point associated with the compound Fc1ccc2nc(-c3cccnc3)n(Cc3cccc4ccccc34)c2c1
## Output 156.1 to 157 °C

## Input Identify melting point associated with the compound Cc1cc2nc(-c3ccncc3)n(C(=O)c3ccc4ccccc4c3)c2cc1C
## Output 160.4 to 160.9 °C

## Input Identify melting point associated with the compound O=C(c1cccc2ccccc12)n1c(-c2ccncc2)nc2cc(F)ccc21
## Output 180.7 to 181.7 °C

## Input Identify melting point associated with the compound O=C(c1cccc2ccccc12)n1c(-c2cccnc2)nc2ccccc21
## Output 148 to 148.1 °C

## Input Identify melting point associated with the compound Cc1cc2nc(-c3cccnc3)n(Cc3cccc4ccccc34)c2cc1C
## Output 141.4 to 142.1 °C

## Input Identify melting point associated with the compound O=C(c1cccc2ccccc12)n1c(-c2ccncc2)nc2ccccc21
## Output 155 to 156.1 °C

## Input Identify melting point associated with the compound O=C(c1cccc2ccccc12)n1c(-c2ccccn2)nc2ccc(F)cc21
## Output 177.2 to 178 °C

====

Known melting point of a selection of compounds

These recorded examples may help you get a feel for the data.
## Input Identify melting point associated with the compound O=C(c1ccc2ccccc2c1)n1c(-c2ccncc2)nc2cc(F)ccc21
## Output 195.7 to 200.6 °C

## Input Identify melting point associated with the compound Fc1ccc2c(c1)nc(-c1cccnc1)n2Cc1cccc2ccccc12
## Output 163.4 to 163.9 °C

## Input Identify melting point associated with the compound O=C(c1ccc2ccccc2c1)n1c(-c2cccnc2)nc2ccc(F)cc21
## Output 167.2 to 167.7 °C

New cases:
## Input Identify melting point associated with the compound Cc1cc2nc(-c3cccnc3)n(C(=O)c3cccc4ccccc34)c2cc1C
## Output 177.2 to 178 °C
